Biological target: Mu-type opioid receptor (Homo sapiens, UniProt P35372)
Sequence (P35372 whole entry): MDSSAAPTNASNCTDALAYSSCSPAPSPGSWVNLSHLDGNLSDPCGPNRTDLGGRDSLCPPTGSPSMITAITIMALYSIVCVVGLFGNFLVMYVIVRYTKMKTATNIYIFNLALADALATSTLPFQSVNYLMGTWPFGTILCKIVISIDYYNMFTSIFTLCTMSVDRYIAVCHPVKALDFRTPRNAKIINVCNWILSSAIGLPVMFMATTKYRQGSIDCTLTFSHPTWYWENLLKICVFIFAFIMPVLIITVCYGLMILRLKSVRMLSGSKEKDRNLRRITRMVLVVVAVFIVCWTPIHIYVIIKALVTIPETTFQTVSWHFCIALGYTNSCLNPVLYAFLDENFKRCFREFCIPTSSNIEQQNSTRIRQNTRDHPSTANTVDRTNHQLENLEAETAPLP
Assay: Displacement of [3H]DAMGO from human mu opioid receptor expressed in CHO cells
Assay type: cell-based
pKi: −log10 of the molar value.
The entries below are paired with their reported pKi.
Measured Endpoint: pKi

* C[C@H]1C2Cc3ccc4[nH]cnc4c3[C@@]1(C)CCN2CC1CC1 | 8.02
* Cc1nc2c3c(ccc2[nH]1)CC1[C@H](C)[C@]3(C)CCN1CC1CC1 | 8.60
* C[C@H]1C2Cc3cc4cc[nH]c4cc3[C@@]1(C)CCN2CC1CC1 | 7.74
* C[C@H]1C2Cc3cc4nc(O)[nH]c4cc3[C@@]1(C)CCN2CC1CC1 | 7.22
* Cc1nc2cc3c(cc2[nH]1)[C@@]1(C)CCN(CC2CC2)C(C3)[C@@H]1C | 9.11
* C[C@H]1C2Cc3cc4[nH]cnc4cc3[C@@]1(C)CCN2CC1CC1 | 9.51

====

Target: Delta-type opioid receptor (Homo sapiens)
Sequence (P41143 whole entry): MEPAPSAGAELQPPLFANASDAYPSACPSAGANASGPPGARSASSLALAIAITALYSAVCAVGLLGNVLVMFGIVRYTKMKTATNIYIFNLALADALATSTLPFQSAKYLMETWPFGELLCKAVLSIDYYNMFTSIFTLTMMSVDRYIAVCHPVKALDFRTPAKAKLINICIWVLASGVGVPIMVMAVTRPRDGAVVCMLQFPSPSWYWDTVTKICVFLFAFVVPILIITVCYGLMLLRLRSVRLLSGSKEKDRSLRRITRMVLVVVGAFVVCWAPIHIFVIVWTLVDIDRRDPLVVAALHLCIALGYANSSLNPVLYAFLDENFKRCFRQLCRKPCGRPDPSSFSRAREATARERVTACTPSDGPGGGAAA
Test: Displacement of [3H]Naltrindole from human delta opioid receptor expressed in CHO cells
pKi: −log10 of the molar value.
Answer No if pKi is under 8, and Yes if it is 8 or more.

• Cc1nc2cc3c(cc2[nH]1)[C@@]1(C)CCN(CC2CC2)C(C3)[C@@H]1C = No
• C[C@H]1C2Cc3cc4[nH]cnc4cc3[C@@]1(C)CCN2CC1CC1 = Yes
• C[C@H]1C2Cc3cc4nc(O)[nH]c4cc3[C@@]1(C)CCN2CC1CC1 = No
• C[C@H]1C2Cc3ccc4[nH]cnc4c3[C@@]1(C)CCN2CC1CC1 = No
• C[C@H]1[C@H]2Cc3ccc(O)cc3[C@]1(C)CCN2CC1CC1 = Yes
• Cc1nc2c3c(ccc2[nH]1)CC1[C@H](C)[C@]3(C)CCN1CC1CC1 = No

====

Biological target: Mu-type opioid receptor (Homo sapiens)
Experiment: Agonist activity at human mu opioid receptor expressed in CHO cells assessed as stimulation of [35S]GTPgammaS binding relative to basal [35S]GTPgammaS binding
Format: functional, cell-based
Parameter: Emax. Scope: all listed entries.
Measured Endpoint: Emax (%)

• C[C@H]1C2Cc3ccc4[nH]nnc4c3[C@@]1(C)CCN2CC1CC1 = 0.58
• C[C@H]1C2Cc3cc4nc[nH]c4cc3[C@@]1(C)CCN2CC1CC1 = 22
• Cc1nc2cc3c(cc2[nH]1)[C@@]1(C)CCN(CC2CC2)C(C3)[C@@H]1C = 55

====

Molecular target: Mu-type opioid receptor (Homo sapiens)
Assay: Antagonist activity at human mu opioid receptor expressed in CHO cells assessed as inhibition of DAMGO-induced [35S]GTPgammaS binding
Format: functional, cell-based
Details: read-out: IC50
pIC50: −log10 of the molar value.
Items are presented alongside their recorded pIC50.
Measured Endpoint: pIC50

* C[C@H]1C2Cc3cc4[nH]cnc4cc3[C@@]1(C)CCN2CC1CC1 | 6.77
* Cc1nc2cc3c(cc2[nH]1)[C@@]1(C)CCN(CC2CC2)C(C3)[C@@H]1C | 4.96
* C[C@H]1C2Cc3ccc4[nH]nnc4c3[C@@]1(C)CCN2CC1CC1 | 7.00

====

Tested on: CHO
Experiment: Ratio of Ki for human mu opioid receptor to Ki for human kappa opioid receptor expressed in CHO cells
Type: cell-based
Below, each of the compounds is paired with its reported Ratio Ki value.
Measured Endpoint: Ratio Ki

* C[C@H]1C2Cc3ccc4[nH]cnc4c3[C@@]1(C)CCN2CC1CC1 | 10
* C[C@H]1C2Cc3cc4nc(O)[nH]c4cc3[C@@]1(C)CCN2CC1CC1 | 5
* C[C@H]1C2Cc3cc4cc[nH]c4cc3[C@@]1(C)CCN2CC1CC1 | 3
* Cc1nc2c3c(ccc2[nH]1)CC1[C@H](C)[C@]3(C)CCN1CC1CC1 | 5

Values compiled from ChEMBL document CHEMBL1136834.
